assay: Cytotoxicity in Saccharomyces cerevisiae D7 incubated for 3 hrs; format: toxicity, organism-based; conditions: Saccharomyces cerevisiae D7 cells
# CC50 at 3 h per entry
Report only the number, with the unit µM understood.

// worked examples, CC50 at 3 h included
Cc1cc2c(cc1-c1cncc(/C=C/C(=O)O)c1)C(C)(C)CCC2(C)C: 440
Cc1cc2c(cc1-n1c(C(F)(F)F)nc3cc(C(=O)O)ccc31)C(C)(C)CCC2(C)C: 193
Cc1cc2c(cc1-c1nc(/C=C/C(=O)O)ccc1C)C(C)(C)CCC2(C)C: 228
Cc1cnc(/C=C/C(=O)O)cc1-c1cc2c(cc1C)C(C)(C)CCC2(C)C: 228

Next up:
Returns the measured CC50 at 3 h for the input molecule. Input: `Cc1cc2c(cc1-c1cc(/C=C/C(=O)O)cnc1C)C(C)(C)CCC2(C)C`
825
